System: Staphylococcus aureus
assayComment: Antimicrobial activity against Staphylococcus aureus ATCC 25923 assessed as diameter of growth inhibition zone at 500 ug/ml after 24 hr by agar well plate method
Type: functional
measurementSetup: ATCC 25923, 24 h, read-out: DIZ
zone of inhibition at 500 µg/mL: recorded values
Numbers only here, please. The scale is mm.

A selection of reference data follows.
[[record]]
compound = "Clc1ccc(C2=NN(c3ccccc3)C(c3cn(-c4ccccc4)nc3-c3ccc(Br)cc3)C2)c(Cl)c1 (configuration not stated)"
observed = 6

[[record]]
compound = "CN[C@@H]1[C@H](O[C@H]2[C@H](O[C@H]3[C@H](O)[C@@H](O)[C@H](N=C(N)N)[C@@H](O)[C@@H]3N=C(N)N)O[C@@H](C)[C@]2(O)C=O)O[C@@H](CO)[C@H](O)[C@H]1O"
observed = 10

[[record]]
compound = "Clc1ccc(-c2nn(-c3ccccc3)cc2C2CC(c3ccc(Cl)cc3Cl)=NN2c2ccccc2)cc1 (configuration not stated)"
observed = 4

[[record]]
compound = "CSc1ccc(C2=NN(c3ccccc3)C(c3cn(-c4ccccc4)nc3-c3ccccc3)C2)cc1 (configuration not stated)"
observed = 0

[[record]]
compound = "Clc1ccc(C2=NN(c3ccccc3)C(c3cn(-c4ccccc4)nc3-c3ccccc3)C2)c(Cl)c1 (configuration not stated)"
observed = 0


Incoming: Report measured zone of inhibition at 500 µg/mL; entry is COc1ccc(-c2nn(-c3ccccc3)cc2C2CC(c3ccc(Cl)cc3Cl)=NN2c2ccccc2)cc1 (configuration not stated)
Outgoing: 3

Incoming: Report measured zone of inhibition at 500 µg/mL; entry is Clc1ccc(-c2nn(-c3ccccc3)cc2C2CC(c3ccc(-c4ccccc4)cc3)=NN2c2ccccc2)cc1 (configuration not stated)
Outgoing: 6
